system: MM96L cells; test: Effect of betaines on MM96L cell numbers; format: cell-based, human; details: dilution 1/50 of 1 mg/ml; 4 days
PROPERTY: cell numbers rating and morphology

Consider the worked cases shown below.
| MOLECULE | REPORTED_RESULT |
| --- | --- |
| C[N+]1(C)C[C@H](O)C[C@H]1C(=O)[O-] [t-4 hydroxy N,N-dimethyl proline] | +pd |
| C[N+]1(C)CCC[C@H]1C(=O)[O-] [stachydrine (proline betaine), free base, stachydrine (proline betaine)] | +++ |
| CN1CC[C@@H](O)[C@@H]1C(=O)O [t-3-hydroxy N-methyl proline, free base, t-3-hydroxy N-methyl proline] | +++ |
| C[N+](C)(C)CCC(=O)O.[Cl-] [β-alanine betaine hydrochloride] | ++d |
| CN1C[C@@H](O)C[C@@H]1C(=O)O [t-4-hydroxy N-methyl proline, free base, t-4-hydroxy N-methyl proline] | +++ |
| CN1CCC[C@H]1C(=O)O [N-methyl proline, free base, N-methyl proline] | +++ |

Now take the following molecule into account.
QUERY: For the molecule C[N+](C)(C)CC(=O)[O-] , what cell numbers rating and morphology is on record?
RESULT: +++
